Tested on: rodent lifetime carcinogenesis bioassay, tumor incidence TD50
Experiment: carcinogenic potency in animals, long-term in vivo studies, CPDB compilation (AID 1745844)
Settings: rat; strain Wistar albino; females; i.p.; site: kidney; lesion: mesenchymal neoplasm; dosed 26 weeks; study length 52 weeks
readoutName: TD50

molecularString | system | endpointValue
CN(N=O)C(=O)NCCC[C@H](N)C(=O)O | rodent lifetime carcinogenesis bioassay, tumor incidence TD50 | 0.633 mg/kg/day

---

Tested on: rodent lifetime carcinogenesis bioassay, tumor incidence TD50
Assay: carcinogenic potency in animals, long-term in vivo studies, CPDB compilation (AID 1745844)
Details: rat; strain Fischer 344; females; in feed; site: clitoral gland + uterus, endometrium; lesion: carcinoma, NOS + adenocarcinoma, NOS + papillary carcinoma; dosed 78 weeks; study length 107 weeks

molecularString | TD50, mg/kg/day
COc1ccc(N)cc1N | 408
